Below is a list of entries, each paired with its recorded IC50 value.
Biological target: Recombinant (1-346) HPK1 (h) (Homo sapiens, UniProt Q92918)
Construct: Recombinant (1-346) HPK1 (h) is incubated with 8 mM MOPS pH 7.0
Sequence (Q92918 1-346): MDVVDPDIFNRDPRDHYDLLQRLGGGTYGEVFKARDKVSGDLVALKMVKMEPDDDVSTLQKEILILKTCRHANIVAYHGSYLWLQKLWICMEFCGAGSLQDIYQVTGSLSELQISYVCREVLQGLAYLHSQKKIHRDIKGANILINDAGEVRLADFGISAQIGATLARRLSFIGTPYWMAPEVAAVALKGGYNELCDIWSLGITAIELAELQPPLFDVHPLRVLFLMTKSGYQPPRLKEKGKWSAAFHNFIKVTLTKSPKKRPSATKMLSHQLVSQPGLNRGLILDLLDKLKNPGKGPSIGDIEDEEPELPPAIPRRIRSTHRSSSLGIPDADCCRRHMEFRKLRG
Assay: HPK1 Human STE Kinase Enzymatic Radiometric Assay
Assay type: biochemical
Details: read-out: HPK1 IC50 nM Range*
Experimental Readout: IC50

[[record]]
compound = "Nc1nc(F)c(-c2ccc(C3=CCN(CC4CC4)CC3)cc2)cc1-c1cc2c(cc1F)C(=O)NCC2"
test_system = "Recombinant (1-346) HPK1 (h) (Homo sapiens, UniProt Q92918)"
val = "0.1 to 10 nM"

[[record]]
compound = "CC(C)[C@@H]1CN(c2ccc(-c3cc(-c4ccc5c(c4)CCNC5=O)c(N)nc3Cl)c(F)c2)CCO1"
test_system = "Recombinant (1-346) HPK1 (h) (Homo sapiens, UniProt Q92918)"
val = "11 to 100 nM"

[[record]]
compound = "Nc1nc(F)c(-c2ccc(N3CCN(CC(F)F)CC3)cc2)cc1-c1cc2c(cc1F)C(=O)NCC2"
test_system = "Recombinant (1-346) HPK1 (h) (Homo sapiens, UniProt Q92918)"
val = "0.1 to 10 nM"

[[record]]
compound = "Nc1nc(F)c(-c2ccc(N3CCN(CC4CC4)CC3)cc2)cc1-c1cc2c(F)c[nH]c(=O)c2cc1F"
test_system = "Recombinant (1-346) HPK1 (h) (Homo sapiens, UniProt Q92918)"
val = "0.1 to 10 nM"

[[record]]
compound = "Nc1nc(F)c(-c2ccc(N3CCN(CCC4CC4)CC3)cc2)cc1-c1cc(F)c2c(c1)CCNC2=O"
test_system = "Recombinant (1-346) HPK1 (h) (Homo sapiens, UniProt Q92918)"
val = "0.1 to 10 nM"

[[record]]
compound = "Cc1cc2cc(-c3cc(-c4ccc(N5CCOCC5)c(CN(C)C)c4)c(F)nc3N)cc(F)c2c(=O)[nH]1"
test_system = "Recombinant (1-346) HPK1 (h) (Homo sapiens, UniProt Q92918)"
val = "11 to 100 nM"

[[record]]
compound = "CO[C@H](C)CN1CCN(c2ccc(-c3cc(-c4ccc5c(c4)CCNC5=O)c(N)nc3F)cc2)CC1"
test_system = "Recombinant (1-346) HPK1 (h) (Homo sapiens, UniProt Q92918)"
val = "0.1 to 10 nM"

[[record]]
compound = "Nc1nc(F)c(-c2ccc(N3CCN(CC4CC4)CC3)cc2)cc1-c1cc(F)c2c(c1)OCCNC2=O"
test_system = "Recombinant (1-346) HPK1 (h) (Homo sapiens, UniProt Q92918)"
val = "0.1 to 10 nM"

[[record]]
compound = "CN(C)CC1Cc2cc(-c3cc(-c4ccc(Cl)cc4)c(F)nc3N)ccc2C(=O)N1 (stereo not shown)"
test_system = "Recombinant (1-346) HPK1 (h) (Homo sapiens, UniProt Q92918)"
val = "101 to 1000 nM"

[[record]]
compound = "CS(=O)(=O)c1ccc(-c2cc(-c3ccc4c(c3)CCNC4=O)c(N)nc2F)cc1"
test_system = "Recombinant (1-346) HPK1 (h) (Homo sapiens, UniProt Q92918)"
val = "0.1 to 10 nM"

[[record]]
compound = "Cc1c[nH]c(=O)c2ccc(-c3cc(-c4ccc(N5CCOCC5)c(CN(C)C)n4)c(F)nc3N)cc12"
test_system = "Recombinant (1-346) HPK1 (h) (Homo sapiens, UniProt Q92918)"
val = "0.1 to 10 nM"

[[record]]
compound = "Nc1nc(F)c(-c2ccc(N3CCSCC3)cc2)cc1-c1cc2c(cc1F)C(=O)NCC2"
test_system = "Recombinant (1-346) HPK1 (h) (Homo sapiens, UniProt Q92918)"
val = "0.1 to 10 nM"

[[record]]
compound = "Nc1cc2cc(-c3cc(-c4ccc5c(c4)CCNC5=O)c(N)nc3F)c(F)c(Cl)c2cn1"
test_system = "Recombinant (1-346) HPK1 (h) (Homo sapiens, UniProt Q92918)"
val = "11 to 100 nM"

[[record]]
compound = "COCCN1CCOCC1c1ccc(-c2cc(-c3ccc4c(c3)CCNC4=O)c(N)nc2F)cc1 (stereo not shown)"
test_system = "Recombinant (1-346) HPK1 (h) (Homo sapiens, UniProt Q92918)"
val = "0.1 to 10 nM"

[[record]]
compound = "C[C@H]1CN(c2ccc(-c3cc(-c4cc5c(cc4F)C(=O)NCC5)c(N)nc3F)cc2CN2CCC2)CCO1"
test_system = "Recombinant (1-346) HPK1 (h) (Homo sapiens, UniProt Q92918)"
val = "11 to 100 nM"

[[record]]
compound = "Nc1nc(F)c(-c2ccc(OC3CCNCC3)cc2)cc1-c1ccc2c(c1)CCNC2=O"
test_system = "Recombinant (1-346) HPK1 (h) (Homo sapiens, UniProt Q92918)"
val = "0.1 to 10 nM"

